System: Caco-2
Assay: cell viability relative to DMSO; higher = less toxic
Details: 72 h; 1000 nM
Measured Metric: cell viability (%)
Please reply with the bare figure in % and do not write the unit itself.

[
  {
    "Compound": "COc1ccc2c(C(=S)N(C)CC(=O)O)cccc2c1C(F)(F)F [tolrestat]",
    "Experimental Result": 98.9
  }
]

Endpoint output: cell viability of COC[C@H](C)Oc1cc(O[C@@H](C)Cc2ccccc2)cc(C(=O)Nc2ccc(C(=O)O)cn2)c1 [GKA-50] . Value? 96.2

Do the same for COc1ccc2nc3cc(Cl)ccc3c(Nc3cc(CN4CCCC4)c(O)c(CN4CCCC4)c3)c2n1 [pyronaridine] please 87.9

Do the same for CCn1cc(-c2ccnc3[nH]c(-c4cccc(CN(C)C)c4)cc23)c(-c2ccc(NC(=O)N(C)C)cc2)n1 please 93.1

###

Test system: Vero E6
Assay: cell viability relative to DMSO; higher = less toxic
Conditions: 72 h; 1 nM
Measured Metric: cell viability

[
  {
    "Compound": "CCCCS(=O)(=O)N[C@@H](Cc1ccc(OCCCCC2CCNCC2)cc1)C(=O)O [tirofiban]",
    "Assay System": "Vero E6",
    "Experimental Result": "94.8%"
  },
  {
    "Compound": "O=S(=O)(c1ccccc1)N(CC(F)(F)F)c1ccc(C(O)(C(F)(F)F)C(F)(F)F)cc1",
    "Assay System": "Vero E6",
    "Experimental Result": "103%"
  },
  {
    "Compound": "CCC(=O)O[C@@H]1CC(=O)O[C@H](C)C/C=C/C=C/[C@H](O)[C@H](C)C[C@H](CC=O)[C@H](O[C@@H]2O[C@H](C)[C@@H](O[C@H]3C[C@@](C)(O)[C@@H](OC(=O)CC)[C@H](C)O3)[C@H](N(C)C)[C@H]2O)[C@H]1OC [midecamycin]",
    "Assay System": "Vero E6",
    "Experimental Result": "105%"
  },
  {
    "Compound": "N#CC(c1ccnc(OCc2ccc(CN3CCOCC3)cc2)n1)c1nc2ccccc2s1 (configuration not stated) [PGL5001]",
    "Assay System": "Vero E6",
    "Experimental Result": "99.8%"
  },
  {
    "Compound": "N[C@@H](CC(=O)N1CCn2c(nnc2C(F)(F)F)C1)Cc1n[nH]c2c(F)c(F)ccc12 [PK-44]",
    "Assay System": "Vero E6",
    "Experimental Result": "102%"
  }
]

Endpoint output: cell viability of CCc1cccc(CC)c1NC(=O)c1nn(C)c2c1CCc1cnc(Nc3ccc(C(=O)NC4CCN(C)CC4)cc3OC(F)(F)F)nc1-2 [NMS-P715] . Value? 104%

Do the same for C1N2CN3CN1CN(C2)C3 [methenamine] please 98.7%

Do the same for O=C(NCCN1CCOCC1)c1ccc(Cl)cc1 [moclobemide] please 98.5%

###

Overview of recorded cell viability for various compounds
Test system: Vero E6
Test: cell viability relative to DMSO; higher = less toxic
Details: 72 h; 10000 nM
Please reply with the bare figure in % and do not write the unit itself.

Sample answers from the record:
[
  {
    "Compound": "CN(C)/C=N/c1c(I)cc(I)c(CCC(=O)O)c1I [iopodic-acid]",
    "Unit Abbreviation": "%",
    "Experimental Result": 102
  },
  {
    "Compound": "C[C@@H](N)c1ccc(C(=O)Nc2ccnc3[nH]ccc23)cc1",
    "Unit Abbreviation": "%",
    "Experimental Result": 86.5
  },
  {
    "Compound": "Oc1ccc(Cl)c2cccnc12 [cloxyquin]",
    "Unit Abbreviation": "%",
    "Experimental Result": 97.7
  },
  {
    "Compound": "COc1ccc2c(C(=S)N(C)CC(=O)O)cccc2c1C(F)(F)F [tolrestat]",
    "Unit Abbreviation": "%",
    "Experimental Result": 96.8
  },
  {
    "Compound": "CCN(CC)C(=S)SSC(=S)N(CC)CC [disulfiram]",
    "Unit Abbreviation": "%",
    "Experimental Result": 99.6
  },
  {
    "Compound": "CCOC(=O)c1ncn2c1CN(C)C(=O)c1cc(N=[N+]=[N-])ccc1-2 [Ro-15-4513]",
    "Unit Abbreviation": "%",
    "Experimental Result": 104
  },
  {
    "Compound": "NC[C@@](O)(c1ccc(Cl)cc1)c1ccc(-c2cn[nH]c2)cc1",
    "Unit Abbreviation": "%",
    "Experimental Result": 30.7
  },
  {
    "Compound": "O=C(O)/C=C1\\CCCc2ccccc2[C@H]1O (racemic) [NCS-382]",
    "Unit Abbreviation": "%",
    "Experimental Result": 101
  }
]

Endpoint output: cell viability of CN(C)CCCSC(=N)N [dimaprit] . Value? 96.2

Do the same for C/C=C1\NC(=O)[C@H]2CSSCC/C=C/[C@H](CC(=O)N[C@H](C(C)C)C(=O)N2)OC(=O)[C@H](C(C)C)NC1=O [romidepsin] please -0.1

###

Overview of recorded cell viability for various compounds
Test system: Calu-3
Experiment: cell viability relative to DMSO; higher = less toxic
Conditions: 72 h; 1 nM
Please reply with the bare figure in % and do not write the unit itself.

Sample answers from the record:
[
  {
    "Compound": "CC1=C(CC(=O)O)c2cc(F)ccc2/C1=C\\c1ccc(S(C)(=O)=O)cc1",
    "cell viability [%]": 95.6
  },
  {
    "Compound": "CCCCCCCC/C=C\\CCCCCCCC(=O)NCc1ccc(O)c(OC)c1",
    "cell viability [%]": 100
  },
  {
    "Compound": "CC1=NN(c2ccc(C)c(C)c2)C(=O)/C1=N\\Nc1cccc(-c2cccc(C(=O)O)c2)c1O",
    "cell viability [%]": 114
  }
]

Endpoint output: cell viability of CC(C)(Oc1ccc(Cl)cc1)C(=O)O . Value? 94.2

Do the same for O=C1c2c(O)cccc2C([C@@H]2O[C@H](CO)[C@@H](O)[C@H](O)[C@H]2O)c2cc(CO)cc(O)c21 (stereo partly drawn) please 104

Do the same for CC(C)(C)[C@H]1CC[C@H](CC2=C(O)C(=O)c3ccccc3C2=O)CC1 please 91.4

Do the same for CCN1CCN(Cc2ccc(C(=O)Nc3ccc(C)c(Oc4ccc5c(c4)CC(=O)N5)c3)cc2C(F)(F)F)CC1 please 97.2

Do the same for O=C1/C(=C/c2ccccc2)C[C@@]2(O)[C@H]3Cc4ccc(O)c5c4[C@@]2(CCN3CC2CC2)[C@H]1O5 please 99.5

###

Test system: Vero E6
Experiment: relative viability EC50 (midpoint between 100% and the lowest measured viability); higher = less toxic
Conditions: 72 h
Overview of recorded relative viability EC50 for various molecules

[
  {
    "Molecule": "Cc1ccc(S(=O)(=O)Nc2nc3ccccc3nc2Nc2ccc3nsnc3c2)cc1 [XL147]",
    "Experimental Result": "> 10000 nM"
  },
  {
    "Molecule": "COc1cc2c(cc1OC)C(c1ccc(N)cc1)=NNC(=O)C2 [CFM-2]",
    "Experimental Result": "> 10000 nM"
  },
  {
    "Molecule": "CCCCCCCCCCCCCCCC[n+]1ccn(Cc2ccccc2)c1C [NH125]",
    "Experimental Result": "1990 nM"
  }
]

Endpoint output: relative viability EC50 of CN(C)/C=N/c1c(I)cc(I)c(CCC(=O)O)c1I [iopodic-acid] . Value? > 10000 nM

Do the same for COCCN1CCN(Cc2ccc(-c3n[nH]c4c3C(=O)c3c(NC(=O)NN5CCOCC5)cccc3-4)cc2)CC1 please 306 nM

###

Tested on: HepG2
Experiment: cell viability relative to DMSO; higher = less toxic
Conditions: 72 h; 10000 nM
Measured Metric: cell viability (%)
Please reply with the bare figure in % and do not write the unit itself.

Sample answers from the record:
[
  {
    "Compound": "C=C1CC[C@H](O)C/C1=C/C=C1\\CCC[C@]2(C)[C@@H]([C@H](C)CCCC(C)(C)O)CC[C@@H]12",
    "Assay System": "HepG2",
    "cell viability, %": 101
  },
  {
    "Compound": "NS(=O)(=O)c1cc2c(cc1Cl)N=C(CSCc1ccccc1)NS2(=O)=O [benzthiazide]",
    "Assay System": "HepG2",
    "cell viability, %": 89.7
  },
  {
    "Compound": "NC1CCN(c2cccc(Cl)n2)CC1",
    "Assay System": "HepG2",
    "cell viability, %": 101
  },
  {
    "Compound": "CCCC(C(=O)OCCN(CC)CC)(c1ccccc1)c1ccccc1",
    "Assay System": "HepG2",
    "cell viability, %": 88.1
  },
  {
    "Compound": "O=C(Nc1cc(Cl)cc(Cl)c1O)c1c(O)c(Cl)cc(Cl)c1Cl [oxyclozanide]",
    "Assay System": "HepG2",
    "cell viability, %": 101
  },
  {
    "Compound": "CSc1ccc([C@H]2CN3CCC[C@H]3c3ccccc32)cc1 (racemic) [McN-5652-(+/-)]",
    "Assay System": "HepG2",
    "cell viability, %": 105
  },
  {
    "Compound": "NCC(O)(CS(=O)(=O)O)c1ccc(Cl)cc1 (centres undefined) [2-hydroxysaclofen]",
    "Assay System": "HepG2",
    "cell viability, %": 98.8
  },
  {
    "Compound": "O=C(O)C(F)(F)C(F)(F)C(F)(F)C(F)(F)C(F)(F)C(F)(F)C(F)(F)F [ammonium-perfluorocaprylate]",
    "Assay System": "HepG2",
    "cell viability, %": 102
  }
]

Would you kindly look at the next entry?
Endpoint output: cell viability of CCC(CC)(CC(=O)Nc1cccc(/C=C/c2nc(C3CCC3)cs2)c1)C(=O)O . Value? 95.7
